B1: OR4K15 (parent)
chain: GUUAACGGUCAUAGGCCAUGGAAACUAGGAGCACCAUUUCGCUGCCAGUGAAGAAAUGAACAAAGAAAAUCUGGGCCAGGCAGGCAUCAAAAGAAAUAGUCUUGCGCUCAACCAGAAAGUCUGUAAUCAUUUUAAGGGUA

Variants of: B1
TEST_PROTOCOL: self-cleavage, relative activity (ratio to wild type); higher = more cleavage; in vitro, sequencing; the parent is a self-cleaving ribozyme
PROPERTY_MEASURED: self-cleavage
Give your answer as a number; write no unit.

# count of solved cases: 3
GUUAACGGUCAUAGGCCAUGGAAACUAGGAGCACCUUUUCGCUGCCAGUGAAGAAACGAACAAAGAAAAUCUGGGCCAGGCAGGCAUCAAAAGAAAUAGUCUUGCGCUCAACCAGAAAGUCUGUAAUCAUUUUAAGGGUA 1.58
GUUAACGGUCAUAGGCCGUGGAAACUAGGAGCACCAUUUCGCUGCCAGUGAAGAAAUGAACAAAGAAAAUCUGGGCCUGGCAGGCAUCAAAAGAAAUAGUCUUGCGCUCAACCAGAAAGUCUGUAAUCAUUUUAAGGGUA 0.35
GUUAACGGUCAUAGGCCAUGGAAACUAGGAGCACCAUUUCGCUGCCAGUGAAGGAAUGAACAAAGAAAAUCUGGGCCAGGCAGGCAUCAAAAGAAAUAGACUUGCGCUCAACCAGAAAGUCUGUAAUCAUUUUAAGGGUA 0.57

Give the measured self-cleavage of GUUAACGGUCAUAGGCCAUGGAAACUAGGAGCACCAUUUCGCCGCCAGUGAAGAAAUGAACAAAGAAAAUCUGGGCCAGGCAGGUAUCAAAAGAAAUAGUCUUGCGCUCAACCAGAAAGUCUGUAAUCAUUUUAAGGGUA .
1.32

// query self-cleavage value for entry GUUAACGGUCAUAGGCCAUGGAAACUAGGAGCACCAUCUCGCUGCCAGUGAAGAAAUGAACAAAGAAAAUCUGGGCCAGGCAGGCAUCAAAAGAAAUAGUCUUGCGCCCAACCAGAAAGUCUGUAAUCAUUUUAAGGGUA
0.02

Give the measured self-cleavage of GUUAACGGUCAUAGGCCAUGGAAACUAGGAGCACCAUUUCGCUGCUAGUGAAGAAAUGAACAAAGAAAAUCUGGGCCAGGCAGGCAUCAAAAGAAAUAGUCUUGCGCUCAACCAGAAAGUCUGUAAUCGUUUUAAGGGUA .
1.52
